All figures here come from patent US11931351B2.

Test: in vitro
Settings: human, peripheral blood leukocytes (PBLs)
metric: CC50 at 48 h (µg/mL)
Give the value in µg/mL but do not write µg/mL after it.

Inquiry: Consider the compound CN1CCC[C@H]1c1cccnc1 [(S)-3-[1-Methylpyrrolidin-2-yl]pyridine] and give its recorded CC50 at 48 h.
Reply text: 7000

###

Test: in vitro
Conditions: human, A549 cells (lung adenocarcinoma epithelial cell line)
metric: CC50 at 48 h (µg/mL)
Give the value in µg/mL but do not write µg/mL after it.

Inquiry: Consider the molecule CN1CCC[C@H]1c1cccnc1 [(S)-3-[1-Methylpyrrolidin-2-yl]pyridine] and give its recorded CC50 at 48 h.
Reply text: 4500
